From: patent US12760268

study.system: Cellular nucleic acid-binding protein (CNBP, ZNF9) (Homo sapiens, UniProt P62633 P62633:1-177)
Sequence (P62633 whole entry, one chain of several): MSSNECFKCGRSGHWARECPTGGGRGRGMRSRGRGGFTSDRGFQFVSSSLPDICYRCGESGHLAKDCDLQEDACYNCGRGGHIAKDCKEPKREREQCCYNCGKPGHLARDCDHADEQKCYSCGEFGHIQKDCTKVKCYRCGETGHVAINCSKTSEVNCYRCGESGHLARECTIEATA
experiment.description: BLI; 2:1 heterogeneous ligand fit, second Kd; off-target
run.conditions: tags: His-tag, Novus Biologicals NBP2-22742, immobilized on Ni-NTA biosensor; label: 5'-FAM (with added 5' T), 5'-Cy5 or 5'-biotin; multi-hairpin on stem; G-quadruplex predicted
metric: pKd
Interpret pKd as the negative base-10 log of the concentration measured in mol/L.

Summary for this binder, tJBA8.1 (ssDNA) DNA: GCAGCAGCGTAAAGGGGGTGTTTGTGCGGTGTGGAGTGCGCGTGCTGCTGC : pKd is 8.09
